Measured melting point by item

CNC(=O)CC1CN=C(c2cc3cc(Oc4ccc(S(C)(=O)=O)nc4)ccc3[nH]2)S1 (stereo not shown) [Example 53] = 150 to 152 °C
CN(C)C(=O)CC1CN=C(c2cc3cc(Oc4ccc(S(C)(=O)=O)nc4)ccc3[nH]2)S1 (stereo not shown) [Example 55] = 162 to 164 °C
CNC(=O)CC1CN=C(c2cc3cc(Oc4ccc(S(C)(=O)=O)nc4)ccc3[nH]2)S1 (stereo not shown) [Example 79] = 172 to 173 °C
CCNC(=O)CC1CN=C(c2cc3cc(Oc4ccc(S(C)(=O)=O)nc4)ccc3[nH]2)S1 (stereo not shown) [Example 54] = 216 to 217 °C
CC1(CNC(=O)CC2CN=C(c3cc4cc(Oc5ccc(S(C)(=O)=O)nc5)cc(OC5CCOCC5)c4[nH]3)S2)COC1 (stereo not shown) [Example 40] = 189 to 190 °C
COCCNC(=O)CC1CN=C(c2cc3cc(Oc4ccc(S(C)(=O)=O)nc4)ccc3[nH]2)S1 (stereo not shown) [Example 66] = 174 to 175 °C

Now let's try a different one.
Task: Give the measured melting point of CS(=O)(=O)c1ccc(Oc2cc(OC3CCOCC3)c3[nH]c(C4=NCC(CC(=O)NC5CC5)S4)cc3c2)cn1 (stereo not shown) [Example 37] .
Output: 175 to 176 °C

Recorded values, source patent US8557805B2.
